Catalogue of molecules with associated T/C
Tested on: P388 leukemia ip, CD2F1 mice, survival T/C
Test: NCI In Vivo Anticancer Drug Screen. Data for tumor model P388 Leukemia (intraperitoneal) in CD2F1 (CDF1) mice
Conditions: endpoint: median survival time; dose: 100.0 mg/kg/injection; schedule: Q01DX001 (ip); vehicle: Klucel (hydroxypropylcellulose) (HPC); higher = longer survival
Toxic doses and inconclusive results are not listed.

Some entries whose results are on file:
Nc1ncc[n+]2c(COCCCl)[nH]nc12 | 92 % of control
Nc1nnc2cccc(Cl)n12 | 98 % of control
Cc1ccccc1/C=C1/C(=O)C(c2ccccc2)=C1c1ccccc1 | 105 % of control
O=C(/C=C\c1cc2[nH]c1c(-c1ccccc1)c1nc(c(-c3ccccc3)c3ccc([nH]3)c(-c3ccccc3)c3nc(c2-c2ccccc2)C=C3)C=C1)NCCCn1ccnc1 | 94 % of control
C(=C1CC(=Cc2ccccc2)C1)c1ccccc1 | 94 % of control

Give me measured T/C, please, for this molecule: OC1(c2ccccc2)C(c2ccccc2)=C(c2ccccc2)C(c2ccc(CCCCCCCCc3ccc(C4=C(c5ccccc5)C(O)(c5ccccc5)C(c5ccccc5)=C4c4ccccc4)cc3)cc2)=C1c1ccccc1 (stereo not given) 86 % of control

Give me measured T/C, please, for this molecule: Cc1oc(-c2ccc(F)cc2)nc1C(N)=O 97 % of control

Give me measured T/C, please, for this molecule: CC(C)C(=NN/C=N/S(C)(=O)=O)C(C)C 97 % of control

Give me measured T/C, please, for this molecule: O=C(O)C1C=CC2OC2C1C(=O)O (stereo not given) 87 % of control

Give me measured T/C, please, for this molecule: N#Cc1c(-c2ccccc2)nc2n1CCS2 102 % of control

====

System: P388 leukemia ip, CD2F1 mice, survival T/C
Assay: NCI In Vivo Anticancer Drug Screen. Data for tumor model P388 Leukemia (intraperitoneal) in CD2F1 (CDF1) mice
Settings: endpoint: median survival time; dose: 200.0 mg/kg/injection; schedule: Q01DX009 (ip); vehicle: saline with Tween-80; higher = longer survival
Toxic doses and inconclusive results are not listed.
Assay endpoint: T/C

Some entries whose results are on file:
ClC(Cl)(Cl)C1OCCO1 | 90 % of control
Cc1cc(N(CCCl)CCCl)ccc1N=Nc1cccc2ccccc12 | 123 % of control
O=C1NN(c2ccccc2)C(=O)/C1=C\c1ccccc1 | 95 % of control
NNC(=O)c1cc2ccccc2cc1O | 95 % of control

Give me measured T/C, please, for this compound: CCN(CC)CCNc1ccc(C)c2sc3c(O)cccc3c(=O)c12 104 % of control

Give me measured T/C, please, for this compound: COc1ccc(N=NS(=O)(=O)O)cn1 106 % of control

Give me measured T/C, please, for this compound: CC1(C)OC(=O)C(Cc2c[nH]c3ccccc23)C(=O)O1 94 % of control

Give me measured T/C, please, for this compound: Nc1nc2c(-c3ccc([N+](=O)[O-])cc3)nnn2c2ccccc12 95 % of control

====

Tested on: P388 leukemia ip, CD2F1 mice, survival T/C
Experiment: NCI In Vivo Anticancer Drug Screen. Data for tumor model P388 Leukemia (intraperitoneal) in CD2F1 (CDF1) mice
Settings: endpoint: median survival time; dose: 100.0 mg/kg/injection; schedule: Q04DX002 (ip); vehicle: saline with Tween-80; higher = longer survival
Inconclusive results and toxic doses are left out.
Assay endpoint: T/C

Cc1ccccc1N=Nc1c(O)n(-c2ccc(Cl)cc2)c(=S)n(-c2ccc(Br)cc2)c1=O | 96 % of control
COc1ccc(-c2oc3cc(OC)c(OC)c(O)c3c(=O)c2O)cc1O | 103 % of control
COc1ccc2c(c1)CCC1=C2N=CN2CCN=C12 | 102 % of control
O=[N+]([O-])c1cc([N+](=O)[O-])c2ccc(S(=O)(=O)O)cc2c1O | 98 % of control
C1=CC2C1C1OC1C1OC21 (stereo not given) | 101 % of control
O=C(CC(=NCC(O)CN=C(CC(=O)c1ccccc1)c1ccccc1)c1ccccc1)c1ccccc1 (stereo not given) | 98 % of control
CCOC(=O)C1CSC2(CCCC2)N1 (stereo not given) | 110 % of control
C/C(=N\NC(N)=Nc1ccc(Cl)cc1)c1ccc(Cl)c(Cl)c1 | 102 % of control

Give me measured T/C, please, for this molecule: O=C(O)/C(=C\c1ccccn1)c1ccccc1 105 % of control

Give me measured T/C, please, for this molecule: CC(=O)OB(OC(C)=O)O[B-]12Oc3ccccc3C=[N+]1c1ccccc1S2 (stereo not given) 106 % of control

====

Tested on: P388 leukemia ip, CD2F1 mice, survival T/C
Assay: NCI In Vivo Anticancer Drug Screen. Data for tumor model P388 Leukemia (intraperitoneal) in CD2F1 (CDF1) mice
Settings: endpoint: median survival time; dose: 25.0 mg/kg/injection; schedule: Q01DX005 (ip); vehicle: Klucel (hydroxypropylcellulose) (HPC); higher = longer survival
Toxic doses and inconclusive results are not listed.
Assay endpoint: T/C

# assay system P388 leukemia ip, CD2F1 mice, survival T/C: give T/C of O=c1[nH]cnc2c1cnn2CN1CCOCC1 106 % of control

# assay system P388 leukemia ip, CD2F1 mice, survival T/C: give T/C of COc1ccc2c3c(c(=O)n(C)c2c1OC)C=CC(C)(C)O3 94 % of control

# assay system P388 leukemia ip, CD2F1 mice, survival T/C: give T/C of O=C(OCC1OC(n2cc(C(F)(F)F)c(=O)[nH]c2=O)CC1OC(=O)c1ccc([N+](=O)[O-])cc1)c1ccc([N+](=O)[O-])cc1 (stereo unspecified) 108 % of control

# assay system P388 leukemia ip, CD2F1 mice, survival T/C: give T/C of CONC(=O)N/N=C/c1c(CO)cnc(C)c1O 100 % of control

# assay system P388 leukemia ip, CD2F1 mice, survival T/C: give T/C of COc1ccc2c(C)cc(N/N=C(\C)c3ccccn3)nc2c1 95 % of control

====

System: P388 leukemia ip, CD2F1 mice, survival T/C
Test: NCI In Vivo Anticancer Drug Screen. Data for tumor model P388 Leukemia (intraperitoneal) in CD2F1 (CDF1) mice
Details: endpoint: median survival time; dose: 400.0 mg/kg/injection; schedule: Q01DX009 (ip); vehicle: saline with Tween-80; higher = longer survival
Toxic doses and inconclusive results are not listed.
Catalogue of compounds with associated T/C

O=C1NN(c2ccccc2)C(=O)/C1=C\c1ccccc1 | 114 % of control

Give me measured T/C, please, for this compound: COc1ccc(C(=Nc2ccc(C)cc2)c2ccc([N+](=O)[O-])cc2)cc1 90 % of control

Give me measured T/C, please, for this compound: COc1ccc(/C=C/C(=O)c2ccc3c(c2)OCO3)cc1OC 100 % of control

====

Test system: P388 leukemia ip, CD2F1 mice, survival T/C
Assay: NCI In Vivo Anticancer Drug Screen. Data for tumor model P388 Leukemia (intraperitoneal) in CD2F1 (CDF1) mice
Conditions: endpoint: median survival time; dose: 50.0 mg/kg/injection; schedule: Q01DX009 (ip); vehicle: suspension in saline; higher = longer survival
Toxic doses and inconclusive results are not listed.
Assay endpoint: T/C

Some entries whose results are on file:
O=C(CCl)N1c2ccccc2Sc2c1ccc1ccccc21 | 103 % of control
O=[N+]([O-])c1c(N2CCN(CCO)CC2)ccc2nonc12 | 100 % of control
S=C(Nc1ccc(I)cc1)SCc1ccc2c(c1)OCO2 | 110 % of control

Now examine the next entry.
# assay system P388 leukemia ip, CD2F1 mice, survival T/C: give T/C of COC(=O)N1C(C)=Cc2ccccc2C1C#N (centres undefined) 100 % of control

====

Test system: P388 leukemia ip, CD2F1 mice, survival T/C
Test: NCI In Vivo Anticancer Drug Screen. Data for tumor model P388 Leukemia (intraperitoneal) in CD2F1 (CDF1) mice
Conditions: endpoint: median survival time; dose: 200.0 mg/kg/injection; schedule: Q01DX005 (ip); vehicle: saline with Tween-80; higher = longer survival
Protocol: The antitumor activity of compounds was measured in mice bearing transplantable tumors. Survival or tumor size were measured and the results are expressed as the measurement made in the treated group (T) divided by the measurement made in the vehicle treated control group (C). The tumor model used in this assay is P388 Leukemia (intraperitoneal) in CD2F1 (CDF1) mice
Inconclusive results and toxic doses are left out.
Catalogue of compounds with associated T/C

Some entries whose results are on file:
Cn1c(Cc2ccccc2)c(C(=O)/C=C/c2ccccc2)c(=O)n(C)c1=O | 99 % of control
Cc1ccc(-n2nc(C(O)C(O)C(O)CO)c3nc4cc(C)c(C)cc4nc32)cc1 (stereo unspecified) | 100 % of control
CCOC(=Nc1ccc([N+](=O)[O-])cc1)SC(c1ccccc1)(c1ccccc1)c1ccccc1 | 88 % of control
O=C1C=CC(Cc2ccccc2)N1C(=O)c1ccccc1 (stereo unspecified) | 97 % of control
C=COC(=O)C(Cc1cccs1)NC(=O)OCc1ccccc1 (stereo unspecified) | 95 % of control

Give me measured T/C, please, for this compound: CCC(=O)C1C(=O)CC(=O)C(C)C1c1ccccc1OC (stereo unspecified) 87 % of control

Give me measured T/C, please, for this compound: CC1=C(C)CN2CC(C#N)=C(N)C2C1 (stereo unspecified) 96 % of control

Give me measured T/C, please, for this compound: CC12CCC/C(=N\NC(N)=S)C1C(=O)NC(=O)C2 (stereo unspecified) 97 % of control

Give me measured T/C, please, for this compound: c1cnc2c(c1)Oc1nc3ccccc3nc1S2 96 % of control

Give me measured T/C, please, for this compound: OCCN(CCO)C(Cc1ccccc1)c1ccccc1 (stereo unspecified) 110 % of control

Give me measured T/C, please, for this compound: CC(NN(C)C(=S)Nc1ccccc1)c1ccccn1 (stereo unspecified) 109 % of control
